- ASSAY DETAILS: Solubility in distilled water at room temperature
- Type: physicochemical
- TEST CONTEXT: distilled water, water, room temperature
PROPERTY: solubility

### Prompt Supply recorded solubility for "O[C@H]1[C@H]2[C@H](O)CCCN2C[C@H]1O" here.
### Response ~800 mg/mL

====

- STUDY SYSTEM: Golgi mannosidase II in MDAY-D2 tumor cells (Mus musculus)
- Construct: endogenous in cells; host or cells: MDAY-D2 tumor cells
- Sequence (P27046 whole entry): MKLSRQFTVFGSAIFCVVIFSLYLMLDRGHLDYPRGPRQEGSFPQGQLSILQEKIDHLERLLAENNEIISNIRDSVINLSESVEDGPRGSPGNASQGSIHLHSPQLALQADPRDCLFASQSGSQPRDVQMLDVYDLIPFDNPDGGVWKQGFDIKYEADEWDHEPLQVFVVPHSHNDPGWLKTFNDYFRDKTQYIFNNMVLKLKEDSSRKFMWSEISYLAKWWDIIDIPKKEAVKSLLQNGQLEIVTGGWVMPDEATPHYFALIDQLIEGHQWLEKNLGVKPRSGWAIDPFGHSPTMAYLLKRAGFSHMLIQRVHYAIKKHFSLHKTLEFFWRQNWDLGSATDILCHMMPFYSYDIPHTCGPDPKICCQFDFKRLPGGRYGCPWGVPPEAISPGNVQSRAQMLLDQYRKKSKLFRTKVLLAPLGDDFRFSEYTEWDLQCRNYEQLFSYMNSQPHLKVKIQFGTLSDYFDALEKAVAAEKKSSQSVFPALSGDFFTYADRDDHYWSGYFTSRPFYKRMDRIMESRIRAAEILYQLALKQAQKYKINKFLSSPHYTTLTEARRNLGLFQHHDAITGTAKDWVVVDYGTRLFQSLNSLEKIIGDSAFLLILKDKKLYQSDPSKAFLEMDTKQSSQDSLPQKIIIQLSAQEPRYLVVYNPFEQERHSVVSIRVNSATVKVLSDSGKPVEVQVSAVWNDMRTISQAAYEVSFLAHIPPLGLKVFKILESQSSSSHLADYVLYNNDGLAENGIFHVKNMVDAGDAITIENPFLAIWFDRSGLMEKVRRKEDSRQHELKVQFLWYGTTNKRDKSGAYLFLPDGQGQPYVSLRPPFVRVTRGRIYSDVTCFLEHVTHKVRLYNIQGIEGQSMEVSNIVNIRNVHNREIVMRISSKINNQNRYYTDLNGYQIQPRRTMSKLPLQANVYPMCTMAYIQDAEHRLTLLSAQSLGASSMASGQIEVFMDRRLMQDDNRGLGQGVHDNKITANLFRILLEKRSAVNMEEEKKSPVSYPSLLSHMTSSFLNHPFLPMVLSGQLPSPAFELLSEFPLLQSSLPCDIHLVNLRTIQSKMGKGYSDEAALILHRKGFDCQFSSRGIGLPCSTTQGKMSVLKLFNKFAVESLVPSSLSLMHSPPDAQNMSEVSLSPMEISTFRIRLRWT
- ASSAY DETAILS: L-PHA cell assay for inhibition of mannosidase II in cells (alkaline phosphatase readout)
- Assay type: cell-based, murine
PROPERTY: pIC50
Numbers only, as −log10 of the molar value.

### Prompt Report the value of pIC50 obtained on Golgi mannosidase II in MDAY-D2 tumor cells (Mus musculus) for Cl.O[C@H]1[C@H]2[C@H](O)CCCN2C[C@@H]1O [swainsonine hydrochloride] .
### Response 7.24
